experiment: Displacement of [3H]AL-11 from IRAP of CHO-K1 cell membrane preincubated for 40 mins in presence of 30 mM EDTA and 600 uM 1,10-Phenantrone after 30 mins by scintillation counting; format: cell membranes, Cricetulus griseus
Examples of compounds with documented pKi follow.
Scale for pKi: -log10 of concentration given in mol/L; no unit attached.

Worked examples, 5 compounds total:
>>> df
                                        mol  quantity  recorded_measurement
0  N[C@H]1CCCC/C=C/C[C@@H](C(=O)NCc2ccccc2CC(=O)O)NC(=O)[C@H](Cc2ccc(O)cc2)NC1=O       pKi                  6.88
1  N[C@H]1CCCCCCC[C@@H](C(=O)NCc2ccccc2CC(=O)O)NC(=O)[C@H](Cc2ccc(O)cc2)NC1=O       pKi                  6.29
2  N[C@H]1CCCCCC[C@@H](C(=O)NCc2ccccc2CC(=O)O)NC(=O)[C@H](Cc2ccc(O)cc2)NC1=O       pKi                  6.20
3  N[C@H]1CC/C=C/CC[C@@H](C(=O)NCc2ccccc2CC(=O)O)NC(=O)[C@H](Cc2ccc(O)cc2)NC1=O       pKi                  6.35
4  N[C@H]1CC/C=C/CC[C@@H](C(=O)NCc2ccccc2CC(=O)O)NC(=O)C[C@H](Cc2ccc(O)cc2)NC1=O       pKi                  7.13

Lookup: Can you look up the measured pKi of N[C@H]1CC/C=C\CC[C@@H](C(=O)NCc2ccccc2CC(=O)O)NC(=O)[C@H](Cc2ccc(O)cc2)NC1=O for me?
Found: 6.25

Lookup: Can you look up the measured pKi of N[C@H]1CC/C=C/CC[C@@H](C(=O)NCc2ccccc2)NC(=O)[C@H](Cc2ccccc2)NC1=O for me?
Found: 5.45

Lookup: Can you look up the measured pKi of N[C@H]1CC/C=C\CC[C@@H](C(=O)NCc2ccccc2)NC(=O)[C@H](Cc2ccccc2)NC1=O for me?
Found: 5.46

----------
experiment: Displacement of [3H]AL-11 from IRAP of CHO-K1 cell membrane after 30 mins by scintillation counting in presence of 30 mM EDTA and 600 uM 1,10-Phenantrone; format: cell membranes, Cricetulus griseus
quantity: Ki (µM)
Output spec: scalar in µM, unitless text.

Worked examples, 4 molecules total:
                                        mol  quantity  measure_unit  recorded_measurement
0  N[C@H]1CC/C=C\CC[C@@H](C(=O)NCc2ccccc2)NC(=O)[C@H](Cc2ccccc2)NC1=O        Ki            µM                 0.287
1  N[C@H]1CC/C=C/CC[C@@H](C(=O)NCc2ccccc2)NC(=O)[C@H](Cc2ccccc2)NC1=O        Ki            µM                 0.719
2  N[C@H]1CCCCCCC[C@@H](C(=O)NCc2ccccc2CC(=O)O)NC(=O)[C@H](Cc2ccc(O)cc2)NC1=O        Ki            µM                0.0125
3  N[C@H]1CC/C=C/CC[C@@H](C(=O)NCc2ccccc2CC(=O)O)NC(=O)[C@H](Cc2ccc(O)cc2)NC1=O        Ki            µM                0.0368

Lookup: Can you look up the measured Ki of N[C@H]1CCCCCC[C@@H](C(=O)NCc2ccccc2CC(=O)O)NC(=O)[C@H](Cc2ccc(O)cc2)NC1=O for me?
Found: 0.0289

Lookup: Can you look up the measured Ki of N[C@H]1CC/C=C\CC[C@@H](C(=O)NCc2ccccc2CC(=O)O)NC(=O)[C@H](Cc2ccc(O)cc2)NC1=O for me?
Found: 0.0248

Lookup: Can you look up the measured Ki of N[C@H]1CC/C=C/CC[C@@H](C(=O)NCc2ccccc2CC(=O)O)NC(=O)C[C@H](Cc2ccc(O)cc2)NC1=O for me?
Found: 0.0098

Lookup: Can you look up the measured Ki of N[C@H]1CCCC/C=C/C[C@@H](C(=O)NCc2ccccc2CC(=O)O)NC(=O)[C@H](Cc2ccc(O)cc2)NC1=O for me?
Found: 0.0468
